- targetEntity: Cytochrome P450 2D6 (Homo sapiens)
- assayProtocol: Cytochrome P450 family 2 subfamily D member 6 (CYP2D6) small molecule antagonists: luciferase biochemical (cell-free) qHTS assay (AID 1645840); further: nearly all actives have a fitted effect of over 55% in size; further: potency means the concentration at half of the fitted maximal effect
- measurementSetup: P450-Glo CYP2D6 enzyme, luciferin luminescence, 1 h; series mostly up to 57.4 µM
Inconclusive results are not listed. Calls of active or inactive are those of the source. The call rests on the fitted dose curve; in most records, active means well fitted inhibition curve with a large enough effect in the repeat runs; inconclusive means weak or mixed curves; inactive means flat fitted curve, though single readings scatter.
valueKind: Potency

query: Which value of Potency has been reported for O=C(O)Cc1ccc(OCCNC[C@H](O)c2ccccc2)cc1 in the records?
result: inactive

query: Which value of Potency has been reported for CCOC(=O)OCC/C(SC(=O)OCC)=C(\C)N(C=O)Cc1cnc(C)nc1N in the records?
result: 2.16 µM (active)

query: Which value of Potency has been reported for O=C(NO)c1ccccc1 in the records?
result: inactive

query: Which value of Potency has been reported for O=C(CCCl)NCc1ccccc1 in the records?
result: inactive

query: Which value of Potency has been reported for CCCC(=O)O[C@]1(C(=O)COC(=O)CC)CC[C@H]2[C@@H]3CCC4=CC(=O)CC[C@]4(C)[C@H]3[C@@H](O)C[C@@]21C in the records?
result: inactive

New cases:
query: Which value of Potency has been reported for O=C1CC2(CCCC2)CC(=O)N1 in the records?
result: inactive

query: Which value of Potency has been reported for Cc1c(F)cc2c(=O)c(C(=O)O)cn3c2c1CCC3C (configuration not stated) in the records?
result: inactive

query: Which value of Potency has been reported for O=C(CCOCCOCCOCCOCCC(=O)Nc1c(I)cc(I)c(C(=O)O)c1I)Nc1c(I)cc(I)c(C(=O)O)c1I in the records?
result: inactive

query: Which value of Potency has been reported for CCOc1c(N2CCOCC2)cnn(C)c1=O in the records?
result: inactive

query: Which value of Potency has been reported for O=C1CC(c2ccc(Cl)cc2)CC(=O)N1 in the records?
result: inactive

query: Which value of Potency has been reported for Nc1nc2ccccc2n1Cc1ccc(F)cc1 in the records?
result: 0.0977 µM (active)

query: Which value of Potency has been reported for O=C(O)CNC(=O)CNC(=O)CNC(=O)CSC(=O)c1ccccc1 in the records?
result: inactive

query: Which value of Potency has been reported for CCCCCC1Nc2cc(C(F)(F)F)c(S(N)(=O)=O)cc2S(=O)(=O)N1 (configuration not stated) in the records?
result: 3.89 µM (active)

query: Which value of Potency has been reported for CCCC(=O)O[C@]1(C(=O)CC)CC[C@H]2[C@@H]3CCC4=CC(=O)CC[C@]4(C)[C@H]3[C@@H](O)C[C@@]21C in the records?
result: 12.3 µM (active)

query: Which value of Potency has been reported for C#CC(C)(CC)OC(=O)c1ccccc1C(=O)O (configuration not stated) in the records?
result: inactive

query: Which value of Potency has been reported for CC(C)(C)c1nnc(NS(=O)(=O)c2ccccc2)s1 in the records?
result: inactive

query: Which value of Potency has been reported for CN(C)CCN1CCN(c2cccc(Cl)c2)C1=O in the records?
result: 15.5 µM (active)

query: Which value of Potency has been reported for CCC(=O)O[C@H]1[C@H](O[C@@H]2[C@@H](C)[C@H](O[C@H]3C[C@@](C)(OC)[C@@H](O)[C@H](C)O3)[C@@H](C)C(=O)O[C@H](CC)[C@@](C)(O)[C@H](O)[C@@H](C)C(=O)[C@H](C)C[C@@]2(C)O)O[C@H](C)C[C@@H]1N(C)C in the records?
result: inactive

query: Which value of Potency has been reported for CC(C)C(=O)OCc1cccc(OC(=O)[C@@H]2N3C(=O)[C@@H](NC(=O)Cc4ccccc4)[C@H]3SC2(C)C)c1 in the records?
result: inactive

query: Which value of Potency has been reported for CCCC(=O)c1cc(O)c(O)cc1O in the records?
result: 31.7 µM (active)

query: Which value of Potency has been reported for Nc1ccc([N+](=O)[O-])c(C(F)(F)F)c1 in the records?
result: inactive

query: Which value of Potency has been reported for O=C(Nc1ccc(Cl)cc1)Nc1ccc(Cl)c(Cl)c1 in the records?
result: inactive

query: Which value of Potency has been reported for Cc1ncc([N+](=O)[O-])n1C in the records?
result: inactive

---

Below is a list of entries, each paired with its recorded Potency value.
- System: CP250
- assayProtocol: qHTS profiling for inhibitors of Plasmodium falciparum proliferation (AID 504749); further: potency means the concentration at half of the fitted maximal effect; nearly all actives have a fitted effect of over 60% in size
- measurementSetup: P. falciparum in erythrocytes, SYBR Green DNA, 72 h; series mostly up to 28.7 µM
Records with an inconclusive call do not appear. Active and inactive are the calls of the source. Calls come from the whole dose curve; as a rule, active = well fitted inhibition curve with a large enough effect; inconclusive = small, poorly fitted or top-dose-only effect; inactive = flat fitted curve, though single readings scatter.

Reference set (3 entries):
query: Which value of Potency has been reported for CCCCCCCCCCCCCCCC[N+](C)(C)Cc1ccccc1 in the records?
result: 2.51 µM (active)

query: Which value of Potency has been reported for CCCCCCCCCCCCCC[N+](C)(C)C in the records?
result: 5.62 µM (active)

query: Which value of Potency has been reported for CCCCCCCCCCCCCCCC[n+]1ccccc1 in the records?
result: 6.31 µM (active)

Now let's try a different one.
query: Which value of Potency has been reported for CN1CCCN(C(c2ccccc2)c2ccc(Cl)cc2)CC1 (stereo not given) in the records?
result: 12.6 µM (active)

---

- assayProtocol: qHTS of pediatric cancer cell lines to identify multiple opportunities for drug repurposing: Confirmatory screen for SK-N-SH cells (AID 1347129);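 further: cells exposed to compound for 48 h before viability read; nearly all actives have a fitted effect of over 60% in size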
- measurementSetup: SK-N-SH neuroblastoma cell viability; series mostly up to 46.1 µM
Records with an inconclusive call do not appear. Calls of active or inactive are those of the source. The call rests on the fitted dose curve; in most records, active means well fitted cell-killing curve with a large enough effect; inconclusive means small, poorly fitted or top-dose-only effect; inactive means flat fitted curve, though single readings scatter.
Entry note: the call must match one of 1 = active, -1 = inactive

For orientation, consider the following solved cases.
query: State the result this test recorded for CO[C@@H]1[C@@H](OC)[C@H](C)[C@@](O)(CC(=O)O)O[C@H]1[C@H](C)[C@H]1O[C@@]2(CC[C@@](C)([C@H]3CC[C@@](C)([C@@H]4O[C@@H]([C@H]5O[C@](C)(O)[C@H](C)C[C@@H]5C)C[C@@H]4OC4C[C@H](OC)[C@@H](OC)[C@H](C)O4)O3)O2)C[C@H](O)[C@H]1C (stereo partly drawn) .
result: 1

query: State the result this test recorded for CN(C)CCN(Cc1ccsc1)c1ccccn1 .
result: -1

New cases:
query: State the result this test recorded for C[C@]12CCC(=O)C=C1CC[C@@H]1[C@@H]2[C@@H](O)C[C@@]2(C)[C@H]1CC[C@]2(O)C(=O)COC(=O)CCC(=O)O .
result: -1

---

- System: SKOV3
- assayProtocol: Primary qHTS to identify gynecologic anti-cancer compounds using libraries of approved drugs and bioactive compounds (AID 1345084); further: nearly all actives have a fitted effect of over 55% in size
- measurementSetup: Gynecologic cancer cell panel viability, ATPlite luminescence, 48 h; series mostly up to 57.5 µM
- From the text: National Center for Advancing Translational Sciences [NCATS] Assay Overview: Chemotherapeutic drug responses vary from cancer to cancer and from patient to patient. […] ATPlite is a luminescence based assay reliant on the conversion of a luciferase substrate to light in the presence of ATP. As a cytotoxic compound will suppress growth and decrease the number of cells, the concentration of ATP will decrease, and less light signal will be detected in the well. […]
Results filed as inconclusive are left out. The source made the active and inactive calls. The call rests on the fitted dose curve; in most records, active means well fitted cell-killing curve with a large enough effect; inconclusive means small, poorly fitted or top-dose-only effect, or effect the other way; inactive means flat fitted curve, though single readings scatter.
valueKind: outcome

query: Which value of outcome has been reported for CO[C@@H]1[C@@H](O[C@@H]2O[C@H](C)[C@@H](O[C@H]3C[C@@](C)(O)[C@@H](O)[C@H](C)O3)[C@H](N(C)C)[C@H]2O)[C@@H](CC=O)C[C@@H](C)[C@@H](O[C@@H]2CC[C@H](N(C)C)[C@@H](C)O2)/C=C/C=C/C[C@@H](C)OC(=O)C[C@H]1OC(C)=O in the records?
result: inactive

query: Which value of outcome has been reported for CC(=O)c1ccc(O)c(C(N)=O)c1 in the records?
result: inactive

query: Which value of outcome has been reported for C[C@H]1C[C@@H]2[C@H]([C@@H](O)C[C@@]3(C)[C@H]2CC[C@]3(O)C(=O)CO)[C@@]2(C)C=CC(=O)C=C12 in the records?
result: inactive

query: Which value of outcome has been reported for CCc1cccc2c(CCO)c[nH]c12 in the records?
result: inactive

query: Which value of outcome has been reported for C[C@H](N)C(=O)N[C@@H](C)C(=O)NC1[C@H]2CN(c3nc4c(cc3F)c(=O)c(C(=O)O)cn4-c3ccc(F)cc3F)C[C@@H]12 (stereo partly drawn) in the records?
result: inactive

New cases:
query: Which value of outcome has been reported for CCOC(=O)Oc1ccc(CCNC(=O)[C@H](CCSC)NC(C)=O)cc1OC(=O)OCC in the records?
result: inactive

query: Which value of outcome has been reported for CC(C)(C)c1nnc(NS(=O)(=O)c2ccccc2)s1 in the records?
result: inactive

query: Which value of outcome has been reported for CO[C@@]1(NC(=O)CSC[C@@H](N)C(=O)O)C(=O)N2C(C(=O)O)=C(CSc3nnnn3C)CS[C@@H]21 in the records?
result: inactive
